# target.under.test: TMPRSS2 (Homo sapiens)
# Construct: purchased Cusabio
# Sequence (O15393 whole entry): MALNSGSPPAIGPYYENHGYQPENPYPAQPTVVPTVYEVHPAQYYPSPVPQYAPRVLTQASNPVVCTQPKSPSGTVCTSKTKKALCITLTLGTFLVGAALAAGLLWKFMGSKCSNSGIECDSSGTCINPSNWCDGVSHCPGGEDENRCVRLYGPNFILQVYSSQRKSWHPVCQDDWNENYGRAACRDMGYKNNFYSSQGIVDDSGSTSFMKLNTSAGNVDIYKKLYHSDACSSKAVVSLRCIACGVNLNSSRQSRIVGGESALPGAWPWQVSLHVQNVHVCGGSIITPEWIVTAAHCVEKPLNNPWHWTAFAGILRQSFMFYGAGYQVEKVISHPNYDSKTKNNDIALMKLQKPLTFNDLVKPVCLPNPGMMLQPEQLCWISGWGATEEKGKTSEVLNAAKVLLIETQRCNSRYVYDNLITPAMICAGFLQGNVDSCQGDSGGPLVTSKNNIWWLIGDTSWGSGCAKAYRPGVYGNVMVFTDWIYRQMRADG
# experiment.description: fluorometric enzyme inhibition assay, TMPRSS2 (Boc-Gln-Ala-Arg-AMC)
# Assay type: biochemical
# experimental.context: from IC50 by Cheng-Prusoff; n.a. = not active, <80% inhibition at 20 µM
# Protocol: The inhibitory activity of the synthesized compounds towards the respective main- and off-target proteases was measured via fluorometric and colorimetric assays. […] Due to the reversible inhibition mechanism of the ketobenzothiazole derivates, the IC50 values were determined with Graphpad Prism 9, and afterwards converted to the corresponding Ki values for an adequate comparison between the inhibitory activities of the compounds toward all tested proteases. […]
attribute.measured: Ki (nM)

>  <compound>
CC(=O)NCC(=O)NC(C(=O)NC(C)C(=O)NC(CCCNC(=N)N)C(=O)c1nc2ccc(Br)cc2s1)C(C)O (stereo not shown) [Compound 14d]

>  <endpoint.result>
6

$$$$
>  <compound>
CC(=O)N[C@@H](CC(N)=O)C(=O)N1CCC[C@H]1C(=O)N[C@@H](Cc1ccc(NC(=N)N)cc1)C(=O)c1nc2ccccc2s1 [Compound 30]

>  <endpoint.result>
5

$$$$
>  <compound>
CC(=O)N[C@@H](Cc1ccccc1)C(=O)N[C@@H](Cc1ccc(NC(=N)N)cc1)C(=O)c1nc2ccccc2s1 [Compound 33]

>  <endpoint.result>
5

$$$$
>  <compound>
CC(=O)NCC(=O)NC(C(=O)NC(C)C(=O)NC(Cc1ccc(NC(=N)N)cc1)C(=O)c1nc2ccccc2s1)C(C)O (stereo not shown) [Compound 29]

>  <endpoint.result>
10

$$$$
